- experimental-target: Recombinant human MASP2 enzyme (fragment corresponding to amino acids 297-686, C-terminal His Tag) (human, UniProt O00187 297-686)
- Sequence (O00187 other isoform, or with tags, fused parts or gaps limits assumed): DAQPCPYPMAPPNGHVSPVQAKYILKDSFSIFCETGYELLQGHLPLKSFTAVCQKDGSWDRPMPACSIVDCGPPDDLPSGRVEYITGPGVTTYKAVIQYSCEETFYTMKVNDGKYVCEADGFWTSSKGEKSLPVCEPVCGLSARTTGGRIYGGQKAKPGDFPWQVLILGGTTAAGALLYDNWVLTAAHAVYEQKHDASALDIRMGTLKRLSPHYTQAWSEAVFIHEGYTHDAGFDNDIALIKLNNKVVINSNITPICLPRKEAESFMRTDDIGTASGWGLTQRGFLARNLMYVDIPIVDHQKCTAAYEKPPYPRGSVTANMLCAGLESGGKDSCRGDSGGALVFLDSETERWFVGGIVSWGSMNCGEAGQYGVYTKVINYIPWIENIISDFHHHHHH
- assay-overview: cell-based or functional assay
Bridge positions count the residues as written; N and C are the ends. Square brackets hold non-standard residues; d marks the D form. Ends that are not written are not given here. Pro(cis-4-CF3) = O=C(O)[C@@H]1C[C@H](C(F)(F)F)CN1; PEG9 = NCCOCCOCCOCCOCCOCCOCCOCCOCCOCCC(=O)O; Oic = O=C(O)[C@@H]1C[C@@H]2CCCC[C@@H]2N1; tBuAla = CC(C)(C)C[C@H](N)C(=O)O; Pen = CC(C)(S)[C@H](N)C(=O)O; Ahx = NCCCCCC(=O)O; Sar = CNCC(=O)O
measured-endpoint: human MASP2 IC50 (nM)
Give bare numbers, in nM.

Examples from the recorded data:
binder	human MASP2 IC50 (nM)
AICSRS[tBuAla]P[Pro(cis-4-CF3)]I[Pen]IPD-OH (disulfide 3-11; N-terminus assumed; SMILES CC[C@H](C)[C@H](NC(=O)[C@H](C)N)C(=O)N[C@H]1CSSC(C)(C)[C@@H](C(=O)N[C@H](C(=O)N2CCC[C@H]2C(=O)N[C@@H](CC(=O)O)C(=O)O)[C@@H](C)CC)NC(=O)[C@H]([C@@H](C)CC)NC(=O)[C@@H]2C[C@H](C(F)(F)F)CN2C(=O)[C@@H]2CCCN2C(=O)[C@H](CC(C)(C)C)NC(=O)[C@H](CO)NC(=O)[C@H](CCCNC(=N)N)NC(=O)[C@H](CO)NC1=O) [AIC+SRS-((tBu)A)-P-((4-CF3)P)-I-(Pen)+IPD-OH]	510
[Sar]ICSRS[tBuAla]PPI[Pen]IP-{PEG9-OH} (disulfide 3-11) [((N-Me)G)-IC+SRS-((tBu)A)-PPI-(Pen)+IP-(PEG9(31 atoms))-OH]	62

Please turn your attention to the following entry.
Value lookup for human MASP2 IC50; key = [Sar]ICSRSLP[Oic]I[Pen]IPD[Ahx]-OH (disulfide 3-11; N-terminus assumed; SMILES CC[C@H](C)[C@H](NC(=O)CNC)C(=O)N[C@H]1CSSC(C)(C)[C@@H](C(=O)N[C@H](C(=O)N2CCC[C@H]2C(=O)N[C@@H](CC(=O)O)C(=O)NCCCCCC(=O)O)[C@@H](C)CC)NC(=O)[C@H]([C@@H](C)CC)NC(=O)[C@@H]2C[C@@H]3CCCC[C@@H]3N2C(=O)[C@@H]2CCCN2C(=O)[C@H](CC(C)C)NC(=O)[C@H](CO)NC(=O)[C@H](CCCNC(=N)N)NC(=O)[C@H](CO)NC1=O) [((N-Me)G)-IC+SRSLP-(Oic)-I-(Pen)+IPD-(Ahx)-OH] 120
